Tested on: Pancreatin
ASSAY_INFO: Protease stability in simulated intestinal fluid (Pancreatin-SIF, FaSSIF)
Type: in vitro ADME
RECORDED_CONDITIONS: 60 min, 1 μM peptide, 37° C., read-out: FaSSIF 60 (min), remaining percent of peptide
Starred links: 1 amine or outer side, 2 acyl side, 3 side chain; linkers in the order of their positions; H or OH if unused. Positions of bridges follow the written chain, without caps; N, C: chain ends. Non-standard residues stand in square brackets, D forms with d. Residues, ends and D or L forms follow the SMILES beside them. *: point of attachment. X3 = CN(CCCCC(=O)N[C@@H](CS[*:2])C(=O)[*:1])[*:3]; X6 = O=C(CCC(=O)[*:3])N[C@@H](CS[*:2])C(=O)[*:1]; Trp(7-Me) = Cc1cccc2c(C[C@H](N)C(=O)O)c[nH]c12; X1 = O=C(CCCCN[*:3])N[C@@H](CS[*:2])C(=O)[*:1]; 2Nal = N[C@@H](Cc1ccc2ccccc2c1)C(=O)O; AEF = NCCOc1ccc(C[C@H](N)C(=O)O)cc1; 3Pal = N[C@@H](Cc1cccnc1)C(=O)O; Lys(Me) = CNCCCC[C@H](N)C(=O)O; αMeL = CC(C)C[C@](C)(N)C(=O)O; Thp = NC1(C(=O)O)CCOCC1; Me2NCH2CH2 = CN(C)CC*; Aib = CC(C)(N)C(=O)O; Ava = NCCCCC(=O)O; Sar = CNCC(=O)O
Measured remaining at 1 h, 1 µM, listed per entry.
In your response, put the unit directly after the numeric value.

Below: 4 compounds and their reported remaining at 1 h, 1 µM.
>>> result("CC(=O)N[C@H]1CCCCNC(=O)[C@@H]2CSSC[C@H](NC(=O)[C@H](CCC(N)=O)NC(=O)[C@H](Cc3c[nH]c4ccccc34)NC1=O)C(=O)N[C@@H](Cc1ccc(OCCN(C)C)cc1)C(=O)N[C@@H](Cc1ccc3ccccc3c1)C(=O)NC1(CCOCC1)C(=O)N[C@H](C(=O)N[C@@H](CC(N)=O)C(=O)NCC(N)=O)CCC(=O)NCCCCC(=O)N2 [compound 30] (Ac-KWQCY(Me2NCH2CH2)[2Nal][Thp]ENG-NH2; linker 1-4-8 via X1)")
"93%"
>>> result("COc1ccc(C[C@@H]2NC(=O)[C@@H]3CSSC[C@H](NC(=O)CCCCNC(=O)CC[C@@H](C(=O)N[C@@H](CC(N)=O)C(=O)N[C@@H](CC(N)=O)C(N)=O)NC(=O)C(C)(C)NC(=O)[C@H](Cc4ccc5ccccc5c4)NC2=O)C(=O)N[C@@H](CC(N)=O)C(=O)N[C@@H]([C@@H](C)O)C(=O)N[C@@H](Cc2c[nH]c4ccccc24)C(=O)N[C@@H](CCC(N)=O)C(=O)N3)cc1 [compound 1] ([Ava]CNTWQCY(Me)[2Nal][Aib]ENN-NH2; disulfide 2-7; lactam N-11)")
"72%"
>>> result("CC(=O)N[C@H]1CCCCNC(=O)[C@@H]2CSSC[C@H](NC(=O)[C@H](CCC(N)=O)NC(=O)[C@H](Cc3c[nH]c4ccccc34)NC1=O)C(=O)N[C@@H](Cc1ccc(OCCN(C)C)cc1)C(=O)N[C@@H](Cc1ccc3ccccc3c1)C(=O)NC(C)(C)C(=O)N[C@H](C(=O)N[C@@H](CC(N)=O)C(=O)NCC(N)=O)CCC(=O)NCCCCC(=O)N2 [compound 29] (Ac-KWQCY(Me2NCH2CH2)[2Nal][Aib]ENG-NH2; linker 1-4-8 via X1)")
"73%"
>>> result("CC(=O)N[C@H]1CCCCNC(=O)[C@@H]2CSSC[C@H](NC(=O)[C@H](CCC(N)=O)NC(=O)[C@H](Cc3c[nH]c4ccccc34)NC1=O)C(=O)N[C@@H](Cc1ccc(OCCN)cc1)C(=O)N[C@@H](Cc1ccc3ccccc3c1)C(=O)NC1(CCOCC1)C(=O)N[C@H](C(=O)N[C@@H](CC(N)=O)C(=O)NCC(N)=O)CCC(=O)N(C)CCCCC(=O)N2 [compound 16] (Ac-KWQC[AEF][2Nal][Thp]ENG-NH2; linker 1-4-8 via X3)")
"83%"

Kindly review the next compound as well.
Recall the recorded remaining at 1 h, 1 µM for CC(=O)N[C@H]1CCCCNC(=O)[C@@H]2CSSC[C@H](NC(=O)[C@H](CC(C)C)NC(=O)[C@H](Cc3c[nH]c4c(C)cccc34)NC1=O)C(=O)N[C@@H](Cc1ccc(OCCN(C)C)cc1)C(=O)N[C@@H](Cc1ccc3ccccc3c1)C(=O)N[C@@](C)(CC(C)C)C(=O)N[C@H](C(=O)N[C@@H](CC(N)=O)C(=O)N[C@@H](Cc1cccnc1)C(=O)N(C)CC(N)=O)CCCCN(C)C(=O)CCC(=O)N2 [compound 68] (Ac-K[Trp(7-Me)]LCY(Me2NCH2CH2)[2Nal][αMeL][Lys(Me)]N[3Pal][Sar]-NH2; linker 1-4-8 via X6) with Pancreatin and state it.
91%
